Property: apparent KD of MS2 coat protein; scope: individual sequences
System: MS2 coat protein
Experiment: apparent KD of MS2 coat protein, switch ON state; designed switch direction (-1 OFF switch, 1 ON switch): 1; higher = weaker reporter binding
Settings: FMN input: 0 or 200 uM; Eterna round: R93 (includes R88 designs)
Quantity Kind: apparent KD of MS2 coat protein (nM)

residue_string="AUAAAACAUGAGGAUCACCCAUGUAGAAAUAUGGGAGGAUAUACGAAGACGAAAGUCGAAGUAGAAGGCCUAAAAG [Mat - Same State 1 - Meechl mod - D116]" quantity_kind="apparent KD of MS2 coat protein" measured_value=27.7
residue_string="AACAAUCUAUCUGAGGAUAUCAUGACAAAGACAUGAGGAUCACCCAUGUCCAGGAAAACUGGUUAUGAGAAGGCAGAUAGAUUGA [SS2: 1112]" quantity_kind="apparent KD of MS2 coat protein" measured_value=9.7
residue_string="AAUAGACAUGAGGAUCACCCAUGUGUAUAUGGGAGAGGAUAUACGGGACACAAGGGCGGAGUAGAAGGCUCGAGAC [Same Satate 1]" quantity_kind="apparent KD of MS2 coat protein" measured_value=68.2

---

Test system: K4 kissing-loop RNA reporter;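 further: bound reporter read as fluorescence of individual clusters on recovered sequencing chips by microscopy, with normalized cluster intensities fitted with a binding model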
Experiment: apparent KD of K4 kissing-loop reporter; higher = weaker reporter binding
Settings: Eterna round: R107; input ligand: tryptophan 2.4 mM
Where apparent KD of K4 kissing-loop reporter equals or exceeds 200 nM, the correct label is label 1; where it does not, the label is label 0.

residue_string="ACGCGCGAGACGGCCGCCACUAUACGUCGAGUGAUGUUCGAGCCAAGAUGUCGUUACGUUUAUAAUAGGACCGGGUCAAUGGAUU [theeternabot_sameState_KL_Trp_B_19]" label="label 1"
residue_string="UAGCAUUUGCUCGAGUGAUGUUCGAGCGAAGGAGCGCGAGAAAUCGCAGGUAGGUCGCGCUCGAACUAUGAGCGAUCAUUUAUUG [Arg A Ex t2d]" label="label 1"
residue_string="GGAUAGGACAGAGGAUAUGGACAGUCUACAAAGUAGGCUGAAAAUCCUUGAAUGGAAGUGAUGUUUCUAGAAGGCUGUCCUAUCG [FmnBX 19 - #SwitchBubble #StaticStem #Palindromic]" label="label 0"
residue_string="GGAUAGGAUAGAGGAUAUGGUUUAGGCAAGAAUAACUUGUCAUGUAAAUCCAUGAGGAGUGAUGUUCCAGAAGGCUGUCCUAUCG [MatMod 8 - Jieux - Exclusion - FMN B]" label="label 0"
residue_string="AGACUACUGAUAGGAUAUAACAUACUACCUCGUAUACCAAAGGUAUACGAGGCCCUUCUAGUGAUGUUAGAAGGGUCGGUAGUCA [Omei KL FMN B Exc B v5]" label="label 0"

---

System: MS2 coat protein
Assay: apparent KD of MS2 coat protein; designed switch direction (-1 OFF switch, 1 ON switch): -1; higher = weaker reporter binding
Details: input ligand: none
Quantity Kind: apparent KD of MS2 coat protein (µM)

residue_string="UUUCUUAAGUGGUCGCUUCACAUGAGGAUCACCCAUGUCGCCUCUAUGGCAUUAAAUACGAGCUUUUUGCUUGAAUU [Eternabot (L1) Solution 14] (Eterna round: R97, puzzle: Sensor, turn-off variant 1)" quantity_unit=µM measured_value=0.385
residue_string="CCUCUACAUGAGGAUCACCCAUGUGAGGAUAUCAAAGUCAGGGCGGCGCCCUGACUCAUGAGAAGGUGCAUGAA [EX1 A.16] (Eterna round: R97, puzzle: Exclusion 1)" quantity_unit=µM measured_value=0.0224
residue_string="UUUGUCUGUGUGAGGAUAUACUUGUUUGGGUUUUUGUAGAAGGCACAUGAGGAUCACCCAUGUAUUUUGUUGUG [JR_BME4_Sub017] (Eterna round: R96, puzzle: Brourd's mod of Exclusion 4)" quantity_unit=µM measured_value=0.0559
residue_string="UACAUGAGGAUCACCCAUGUUUUGUCGUGUAUGGUAUUUAUCUAGGAUAUCAAUGGAUUUAUUUAUGAGAAGGAGAAUAUUAAU [JMF's solution 38] (Eterna round: R96, puzzle: Exclusion NG 3)" quantity_unit=µM measured_value=0.0323
residue_string="GGAGGAAGAGAGGAUAUGGAGGAGAGGAGAAGACCAGAAGGUUCAACAUGAGGAUCACCCAUGUAUGAUCCUCA [AK-MS2ROC-r4-exclusion6-1.1] (Eterna round: R97, puzzle: Exclusion 6)" quantity_unit=µM measured_value=0.694
residue_string="CGGGCGCGUGUAGGAUAUCGGGCCCGGUGGGCCCGAGAAGGACAUGAGGAUCACCCAUGUGCCCGGGUUGCCCGGGCGCGCCCG [-50, -49 kcal and 14% A] (Eterna round: R96, puzzle: Exclusion NG 1)" quantity_unit=µM measured_value=0.0145
residue_string="AAGAGGCGGACAGGAUAUGGGAAAUUGUAAAGACCAGAAGGGUCGGCGAAAAUACAUGAGGAUCACCCAUGUGACUCAUGACCA [AK ExNG1-7.1] (Eterna round: R96, puzzle: Exclusion NG 1)" quantity_unit=µM measured_value=0.29
residue_string="AGGGUUUGAGGAUAUAUCUGGUGGGACAUGAGGAUCACCCAUGUUCAUGUCGUAUCCUCAGUAGAAGGCAGACAGG [Eternabot (Original) Solution 14] (Eterna round: R97, puzzle: Exclusion 5)" quantity_unit=µM measured_value=0.0134
residue_string="CUGCUCCGUGUAGGAUAUGCGCGCAACCAACGCGCAGAAGGACAUGAGGAUCACCCAUGUAUGUUAUUAUCACGUGAAGCGCAA [Design 31] (Eterna round: R96, puzzle: Exclusion NG 1)" quantity_unit=µM measured_value=0.0132
